# experiment description: S. cerevisiae RM11-1a growth modifiers, primary screen, strain RM11-1a, OD600, basal, 24 h (AID 1177);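 note: cultures grown under basal conditions with no added stressor; test concentration not given here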
# test conditions: OD600, 24 h, higher = more signal, called active from +8 up or from −8 down
Outcome: T for z-score of at least 0.8; F for anything lower.

| compound | class |
| --- | --- |
| COc1ccc([Si](C)(C)[C@H]2[C@H](CCn3cc([C@H](O)c4ccccc4)nn3)O[C@@]3(C(=O)N(C)c4c(Br)cc(C)cc43)[C@@H]2C)cc1 | T |
| O=C1O[C@H](c2ccccc2)[C@H](c2ccccc2)N2[C@H]1[C@@H](C(=O)NC[C@H](O)c1ccccc1)[C@]1(C(=O)Nc3ccc(C#CCCO)cc31)[C@H]2c1ccccc1OCCO | T |
| C[C@@H](OCc1ccccc1)C1NC(=O)[C@@]23C(=O)N[C@@H](Cc4ccccc4)C2[C@H](C)[C@@]2(C)O[C@H]2C3/C=C/C/C=C\CNC(=O)[C@H](Cc2ccccc2)NC1=O (stereo partly drawn) | F |
| O=C(NCC(F)(F)F)[C@@H]1c2ccccc2C(=O)N(CC23CC4CC(CC(C4)C2)C3)[C@H]1c1ccc(CO)cc1 | F |
| O=C1O[C@@H](c2ccccc2)[C@@H](c2ccccc2)N2[C@@H](c3ccc(O)cc3)[C@]3(C(=O)Nc4ccc(C#CC5=CCCCC5)cc43)[C@@H](C(=O)N3CCCCCCC3)[C@H]12 | F |
| CC#CCO[Si](C#CCCCCCC)(C(C)C)C(C)C | F |
| COCCOC(=O)N1C(=O)[C@@]2(c3cc(C#CCC(C(=O)OC)C(=O)OC)ccc31)[C@H](C(=O)N1CCc3cc(OC)c(OC)cc3C1)[C@H]1C(=O)O[C@H](c3ccccc3)[C@H](c3ccccc3)N1[C@@H]2c1ccc(O)cc1 | T |
| C=C(CCCC)C(=O)CC[C@H](OC(C)=O)c1ccccc1OCCO | F |
| C=CC[C@]1(C(=O)NCCCOC)N=C(c2ccc(OCCCO)cc2)O[C@H]1c1ccccc1 | F |
| CC=CC(O)C1C=CC2C(=O)N(C)C(=O)C2N1NC(=O)OC(C)(C)C (stereo not drawn) | F |
| NC(=O)[C@@]1(CCS(=O)(=O)c2ccccc2)COC(c2ccc(OCCCO)cc2)=N1 | F |
| Cc1ccc(F)cc1S(=O)(=O)N[C@@H]1CCN(Cc2ccc3c(c2)OCO3)C1 | F |
| COCCn1c(C(=O)N2CCCC2)cc2c1C[C@H]1CN(C(=O)c3ccccc3)[C@@](Cc3ccccc3)(C(=O)OC)[C@@H]21 | T |
| CC(C)C[C@@H]1NC(=O)[C@@]23C(=O)N[C@@H](Cc4ccccc4)C2[C@H](C)[C@@]2(C)O[C@H]2C3/C=C/C/C=C\CNC(=O)[C@@H](CC(C)C)NC1=O (stereo partly drawn) | F |
| CO[C@H]1O[C@H](CO)[C@@H](OC(=O)Nc2ccccc2)[C@@H]2OC(=O)[C@H](Cc3ccccc3)C/C=C/C[C@@H](Cc3ccccc3)C(=O)O[C@@H]12 | T |
| N#Cc1ccc(C(O)C2C=CC3C(=O)N(c4ccccc4)C(=O)C3N2Nc2ccc([N+](=O)[O-])cc2)cc1 (stereo not drawn) | F |
| CC(=O)c1ccc(C(O)C2C=CC3C(=O)N(C)C(=O)C3N2NC(=O)OC(C)(C)C)cc1 (stereo not drawn) | T |
| COc1ccc(C#Cc2ccc3c(c2)[C@]2(C(=O)N3)[C@H](C(=O)Nc3nc4ccccc4s3)[C@H]3C(=O)O[C@H](c4ccccc4)[C@H](c4ccccc4)N3[C@@H]2c2ccc(OCCO)cc2)cc1 | T |
| Cc1ccc(S(=O)(=O)N2[C@@H](c3ccccc3)C(C(=O)O)=CC[C@H]2c2ccc(C#N)cc2)cc1 | F |
| Cc1ccc(S[C@]2(C(=O)NCCCN(C)C)CC(=O)N(Cc3ccccc3Cl)[C@@H]2c2ccc(CO)cc2I)cc1 | T |
| CC(C)C(=C=CC[C@@H](O)c1cccc(OCCO)c1)CCO | F |
| C/C=C/CN(C(=O)C#Cc1ccccc1)[C@H](CO[Si](C)(C)C(C)(C)C)c1ccccc1 | F |
